// provenance: patent US10300071B2

# TARGET UNDER TEST: Mtb AccD6 (Mycobacterium tuberculosis, UniProt P9WQH5)
# Sequence (P9WQH5 whole entry, looked up): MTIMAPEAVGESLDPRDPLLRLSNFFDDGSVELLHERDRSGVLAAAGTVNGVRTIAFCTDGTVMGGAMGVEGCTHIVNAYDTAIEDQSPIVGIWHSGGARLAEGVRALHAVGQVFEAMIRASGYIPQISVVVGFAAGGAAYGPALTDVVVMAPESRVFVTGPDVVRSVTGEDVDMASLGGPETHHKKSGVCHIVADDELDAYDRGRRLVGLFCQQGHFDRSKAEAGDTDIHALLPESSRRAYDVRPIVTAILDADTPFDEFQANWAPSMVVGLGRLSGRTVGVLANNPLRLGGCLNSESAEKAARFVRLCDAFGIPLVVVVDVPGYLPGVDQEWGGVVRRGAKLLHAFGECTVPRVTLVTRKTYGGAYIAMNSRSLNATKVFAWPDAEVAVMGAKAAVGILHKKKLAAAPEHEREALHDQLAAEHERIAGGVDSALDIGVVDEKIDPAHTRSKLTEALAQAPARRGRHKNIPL
# METHOD SUMMARY: biochemical
# Assay type: biochemical
# MEASUREMENT CONDITIONS: 300 μM malonyl-CoA, inhibitor 10 μM to 2000 μM; read-out: IC50
pIC50: −log10 of the molar value.
Classify by measured pIC50: 1 if it is equal to or exceeds 5, -1 if it is smaller.

1. CNC(=O)C(C)c1ccc(Oc2nc3cc(Cl)c(Cl)cc3s2)cc1 (stereo not shown) = 1
2. CNC(=O)COc1ccc(Oc2cnc3cc(Cl)ccc3n2)cc1 = 1
3. COC(=O)C(C)(C)Oc1ccc(Oc2cnc3cc(Cl)ccc3n2)cc1 = -1
4. CC(C)NC(=O)Cc1ccc(Oc2nc3ccc(F)cc3s2)cc1O = 1
5. CNC(=O)NCc1ccc(Oc2nc3ccc(Cl)cc3s2)cc1 = 1

---

# TARGET UNDER TEST: Mtb AccD6 (Mycobacterium tuberculosis)
# METHOD SUMMARY: biochemical
# Type: biochemical
# MEASUREMENT CONDITIONS: 300 μM malonyl-CoA, inhibitor 10 μM to 2000 μM; read-out: IC50
OUTCOME MEASURE: IC50 (nM)

1) O=C(O)COc1ccc(Oc2nc3ccc(F)cc3s2)cc1 = 3400
2) CC(O)COc1ccc(Oc2cnc3cc(Cl)ccc3n2)cc1 (stereo not drawn) = 3400
3) CNC(=O)Cc1ccc(Oc2nc3cc(F)c(F)cc3s2)cc1F = 240
4) COC(C(=O)O)c1ccc(Oc2nc3ccc(Cl)cc3s2)cc1 (stereo not drawn) = 1700
5) CC(C(=O)NCC(O)CO)c1ccc(Oc2nc3ccc(Cl)cc3s2)cc1 (stereo not drawn) = 2750
6) CC(C)=NOCCOC(=O)C(C)Oc1ccc(Oc2cnc3cc(Cl)ccc3n2)cc1 (stereo not drawn) [propaquizafop, reference compound] = 2100
7) O=C(COc1ccc(Oc2cnc3cc(Cl)ccc3n2)cc1)N1CCOCC1 = 990
8) COC(=O)C(C)c1ccc(Oc2cnc3cc(Cl)ccc3n2)cc1 (stereo not drawn) = 8000
9) CC(C(=O)O)c1ccc(Oc2nc3ccc(F)cc3s2)cc1 (stereo not drawn) = 370
10) CN(O)C(=O)COc1ccc(Oc2cnc3cc(Cl)ccc3n2)cc1 = 800
11) CONC(=O)C(C)c1ccc(Oc2cnc3cc(Cl)ccc3n2)cc1 (stereo not drawn) = 182
12) CNC(=O)C(C)c1ccc(Oc2nc3cc(F)c(F)cc3s2)cc1 (stereo not drawn) = 260
13) Nc1ccc(Oc2nc3ccc(F)cc3s2)cc1 = 14000
14) CONC(=O)C(O)c1ccc(Oc2nc3ccc(Cl)cc3s2)cc1 (stereo not drawn) = 7200
15) O=C(O)C(O)c1ccc(Oc2nc3ccc(Cl)cc3s2)cc1 (stereo not drawn) = 2300
16) Clc1ccc2nc(Oc3ccc(OCc4nnn[nH]4)cc3)cnc2c1 = 1700
17) CN(C)C(=O)NCc1ccc(Oc2nc3ccc(Cl)cc3s2)cc1 = 7000
18) CNC(=O)Cc1ccc(Oc2nc3cc(F)c(F)cc3s2)cc1O = 120
19) CC(C)NC(=O)Nc1ccc(Oc2nc3ccc(Br)cc3s2)cc1 = 8400
20) CC(C(=O)O)c1ccc(Oc2nc3ccc(Cl)cc3s2)cc1 (stereo not drawn) = 260

---

# Test system: S. cerevisiae
In this section we review reported concentrations at which not toxic, s. cerevisiae cytotoxicity values for a set of compounds.
OUTCOME MEASURE: concentrations at which not toxic, s. cerevisiae cytotoxicity

1. NCc1ccc(Oc2nc3ccc(Cl)cc3s2)cc1 = 25 to 50 µM
2. CC(C)NC(=O)Nc1ccc(Oc2nc3c(F)cccc3s2)cc1 = ≥ 100 µM
3. O=C(O)Cc1ccc(Oc2nc3cc(F)c(F)cc3s2)cc1 = ≥ 100 µM
4. CONC(=O)C(C)(C)Oc1ccc(Oc2nc3ccc(Cl)cc3s2)cc1 = ≥ 100 µM
5. CONC(=O)C(C)c1ccc(Oc2nc3ccc(OC)cc3s2)cc1 (stereo not drawn) = ≥ 100 µM
6. COC(=O)Cc1ccc(Oc2nc3ccc(F)cc3s2)cc1 = ≥ 100 µM
7. CC(C)(Oc1ccc(Oc2cnc3cc(Cl)ccc3n2)cc1)C(=O)O = ≥ 100 µM
8. CC(C(=O)O)c1ccc(Oc2cnc3cc(Cl)ccc3n2)cc1 (stereo not drawn) = ≥ 100 µM
9. CNC(=O)C(C)c1ccc(Oc2nc3ccc(Cl)cc3s2)cc1 (stereo not drawn) = ≥ 100 µM
10. O=C(O)Cc1ccc(Oc2cnc3cc(Cl)ccc3n2)cc1 = ≥ 100 µM
11. CONC(=O)C(C)c1ccc(Oc2nc3ccc(Cl)cc3s2)cc1 (racemic) = ≥ 100 µM
12. CC(C)NC(=O)Nc1ccc(Oc2nc3cc(F)c(F)cc3s2)cc1 = 50 to 100 µM
13. CC(C)NC(=O)Nc1ccc(Oc2nc3cc(F)ccc3s2)cc1 = ≥ 100 µM
14. CC(C)(C)OC(=O)Nc1ccc(Oc2nc3ccc(Cl)cc3s2)cc1 = ≥ 100 µM
15. CNC(=O)C(C)c1ccc(Oc2nc3cc(F)c(F)cc3s2)cc1 (stereo not drawn) = ≥ 100 µM
16. CC(C)(C)OC(=O)Nc1ccc(Oc2cnc3cc(Cl)ccc3n2)cc1 = ≥ 100 µM
17. CC(C)NC(=O)Nc1ccc(Oc2nc3ccc(C#N)cc3s2)cc1 = ≥ 100 µM
18. CNC(=O)Cc1ccc(Oc2nc3cc(F)c(F)cc3s2)cc1O = ≥ 100 µM
19. CC(C)NC(=O)Nc1ccc(Oc2nc3ccc(Cl)cc3s2)cc1 = ≥ 100 µM
20. CONC(=O)Cc1ccc(Oc2nc3ccc(F)cc3s2)cc1 = ≥ 100 µM
21. CC(C(=O)NCC(O)CO)c1ccc(Oc2nc3ccc(Cl)cc3s2)cc1 (stereo not drawn) = ≥ 100 µM

---

In this section we review reported concentrations at which not toxic, s. cerevisiae cytotoxicity values for a set of molecules.
# Tested on: S. cerevisiae
OUTCOME MEASURE: concentrations at which not toxic, s. cerevisiae cytotoxicity

1) CNC(=O)C(C)c1ccc(Oc2nc3ccc(F)cc3s2)cc1 (centres unmarked) [NZ-386] = ≥ 100 µM
2) COC(=O)C(O)c1ccc(Oc2nc3ccc(Cl)cc3s2)cc1 (centres unmarked) [NZ-336] = 50 to 100 µM
3) COC(C(=O)O)c1ccc(Oc2nc3ccc(Cl)cc3s2)cc1 (centres unmarked) [NZ-356] = ≥ 100 µM
4) CC(C)NC(=O)Nc1ccc(Oc2nc3ccc(Cl)cc3s2)c[n+]1[O-] [NZ-391] = ≥ 100 µM
5) CC(C)ONC(=O)COc1ccc(Oc2cnc3cc(Cl)ccc3n2)cc1 [NZ-326] = ≥ 100 µM

---

# TARGET UNDER TEST: Mtb AccD6 (Mycobacterium tuberculosis)
# METHOD SUMMARY: biochemical
# Format: biochemical
# MEASUREMENT CONDITIONS: 300 μM malonyl-CoA, inhibitor 10 μM to 2000 μM
OUTCOME MEASURE: IC50

1. CC(C)(C)OC(=O)NCc1ccc(Oc2nc3ccc(Cl)cc3s2)cc1 = Not Active
2. CC(C)NC(=O)Nc1ccc(Oc2nc3ccc(Cl)cc3s2)c[n+]1[O-] = Not Active
3. CCOC(=O)c1ccc2nc(Oc3ccc(NC(=O)NC(C)C)cc3)sc2c1 = Not Active

---

Below are molecules with their concentrations at which not toxic, human fibroblast cytotoxicity as measured on human fibroblast.
OUTCOME MEASURE: concentrations at which not toxic, human fibroblast cytotoxicity

1) CONC(=O)COc1ccc(Oc2nc3ccc(F)cc3s2)cc1 = ≥ 100 µM
2) CC(C)NC(=O)Nc1ccc(Oc2nc3cc(F)c(F)cc3s2)cc1 = ≥ 100 µM
3) CC(C)NC(=O)Nc1ccc(Oc2nc3ccc(C#N)cc3s2)cc1 = ≥ 100 µM
4) CC(C)NC(=O)C(C)c1ccc(Oc2nc3ccc(Cl)cc3s2)cc1 (centres unmarked) = ≥ 100 µM
5) CONC(=O)C(C)c1ccc(Oc2cnc3cc(Cl)ccc3n2)cc1 (centres unmarked) = ≥ 100 µM
6) CC(C)NC(=O)Nc1ccc(Oc2nc3cc(F)ccc3s2)cc1 = ≥ 100 µM
7) CONC(=O)C(C)(C)Oc1ccc(Oc2cnc3cc(Cl)ccc3n2)cc1 = ≥ 100 µM
8) COC(=O)C(C)(C)Oc1ccc(Oc2nc3ccc(Cl)cc3s2)cc1 = ≥ 100 µM
9) COC(=O)C(O)c1ccc(Oc2nc3ccc(Cl)cc3s2)cc1 (centres unmarked) = 50 to 100 µM
10) CNC(=O)C(C)c1ccc(Oc2nc3cc(Cl)c(Cl)cc3s2)cc1 (centres unmarked) = ≥ 100 µM
11) CC(Oc1ccc(Oc2nc3ccc(Cl)cc3o2)cc1)C(=O)O (centres unmarked) [fenoxaprop-p, reference compound] = ≥ 100 µM
12) O=C(O)Cc1ccc(Oc2cnc3cc(Cl)ccc3n2)cc1 = ≥ 100 µM
13) CC(C(=O)N(C)C)c1ccc(Oc2nc3ccc(Cl)cc3s2)cc1 (centres unmarked) = ≥ 100 µM
14) COc1ccc2nc(Oc3ccc(C(C)C(=O)O)cc3)sc2c1 (centres unmarked) = ≥ 100 µM
15) COC(=O)C(C)c1ccc(Oc2cnc3cc(Cl)ccc3n2)cc1 (centres unmarked) = ≥ 100 µM
16) CCOC(=O)[C@@H](C)Oc1ccc(Oc2nc3ccc(Cl)cc3o2)cc1 = ≥ 100 µM
17) CNC(=O)Cc1ccc(Oc2nc3ccc(Cl)cc3s2)cc1OC = ≥ 100 µM
18) CNC(=O)C(C)c1ccc(Oc2nc3ccc(Cl)cc3s2)cc1 (centres unmarked) = ≥ 100 µM
19) CC(C)NC(=O)Nc1ccc(Oc2nc3cc(Cl)ccc3s2)cc1 = ≥ 100 µM
20) COC(=O)Cc1ccc(Oc2nc3cc(F)c(F)cc3s2)cc1 = ≥ 100 µM
